Tested on: mu opiate receptor (MOR)
Test: MOR agonist activity using [35S]GTPγS binding assay in striatal membranes
Format: biochemical
Details: Series C-1; 0.1 μM compound, relative to DAMGO
Method: To assess the mu opiate receptor (MOR) agonist activity of positive compounds from the FLNA screening, compounds were tested in a [^35S]GTPγS binding assay using striatal membranes. […] The immunocomplexes so formed were collected by incubation at 25° C. for 30 minutes with 40 μl of agarose-conjugated protein A/G beads and centrifugation at 5,000×g at 4° C. for 5 minutes. […] The radioactivity in the suspension was determined by liquid scintillation spectrometry.
The label depends only on % DAMGO (0.1 μM): MET if it is at least 80%, NOT MET if it is smaller.

COMPOUND	TARGET OR TEST SYSTEM	GROUP
COc1ccc(S(=O)(=O)N2CCC3(CC2)OCCN3S(=O)(=O)c2ccc(C(C)=O)cc2)cc1 [Compound C0048]	mu opiate receptor (MOR)	MET
COc1ccc(C(=O)N2CCOC23CCN(S(=O)(=O)c2ccc(OC)cc2)CC3)cc1 [Compound C0019]	mu opiate receptor (MOR)	NOT MET
Cc1ccc(S(=O)(=O)N2CCC3(CC2)OCCN3S(=O)(=O)c2ccc(C)cc2)cc1 [Compound C0001]	mu opiate receptor (MOR)	NOT MET
CNc1ccc(S(=O)(=O)N2CCC3(CC2)OCCN3S(=O)(=O)c2ccc(NC)cc2)cc1 [Compound C0024]	mu opiate receptor (MOR)	MET
COc1ccccc1S(=O)(=O)N1CCC2(CC1)OCCN2S(=O)(=O)c1ccccc1OC [Compound C0003]	mu opiate receptor (MOR)	MET
CC(=O)c1ccc(C(=O)N2CCC3(CC2)OCCN3S(=O)(=O)c2ccc(C(C)=O)cc2)cc1 [Compound C0052]	mu opiate receptor (MOR)	NOT MET

###

Tested on: mu opiate receptor (MOR)
Test: MOR agonist activity using [35S]GTPγS binding assay in striatal membranes
Type: biochemical
Conditions: Series C-1; 1 μM compound, relative to DAMGO
Procedure: To assess the mu opiate receptor (MOR) agonist activity of positive compounds from the FLNA screening, compounds were tested in a [^35S]GTPγS binding assay using striatal membranes. […] The immunocomplexes so formed were collected by incubation at 25° C. for 30 minutes with 40 μl of agarose-conjugated protein A/G beads and centrifugation at 5,000×g at 4° C. for 5 minutes. […] The radioactivity in the suspension was determined by liquid scintillation spectrometry.
# Lookup of reported % DAMGO (1 μM) keyed by entry

COMPOUND	% DAMGO (1 μM) / %
N#Cc1ccccc1S(=O)(=O)N1CCC2(CC1)OCCN2S(=O)(=O)c1ccccc1C#N	85.4
CC(=O)c1ccc(S(=O)(=O)N2CCC3(CC2)NC(=O)CN3S(=O)(=O)c2ccc(C(C)=O)cc2)cc1	159.1
COc1ccccc1S(=O)(=O)N1CCC2(CC1)OCCN2S(=O)(=O)c1ccccc1OC	83.3
COc1ccc(S(=O)(=O)N2CCC3(CC2)OCCN3S(=O)(=O)c2ccc(C(C)=O)cc2)cc1	105.3
CCCCc1ccc(S(=O)(=O)N2CCC3(CC2)OCCN3S(=O)(=O)c2ccc(CCCC)cc2)cc1	98.0
O=S(=O)(c1cccc2cccnc12)N1CCC2(CC1)OCCN2S(=O)(=O)c1cccc2cccnc12 [Compound C0143M]	59.3
CC(C)c1ccc(S(=O)(=O)N2CCC3(CC2)OCCN3S(=O)(=O)c2ccc(C(C)C)cc2)cc1	70.5
O=S(=O)(c1csc2ccccc12)N1CCC2(CC1)OCCN2S(=O)(=O)c1csc2ccccc12 [Compound C0150M]	129.8
COc1ccc(S(=O)(=O)N2CCC3(CC2)OCCN3S(=O)(=O)c2ccc(OC)cc2)cc1	94.8
COc1ccc(C(=O)N2CCOC23CCN(S(=O)(=O)c2ccc(OC)cc2)CC3)cc1	68.1
CC(=O)c1ccc(S(=O)(=O)N2CCC3(CC2)NC(=O)C(Cc2cnc[nH]2)N3S(=O)(=O)c2ccc(C(C)=O)cc2)cc1 (stereo not drawn) [Compound C0084M]	114.9
O=S(=O)(c1ccc(Cl)cc1)N1CCC2(CC1)OCCN2S(=O)(=O)c1ccc(Cl)cc1	81.5
CC(=O)c1ccc(S(=O)(=O)N2CCC3(CC2)NCC(=O)N3Cc2ccccc2)cc1 [Compound C0082M]	107.8
O=C(c1ccc([N+](=O)[O-])cc1)N1CCC2(CC1)OCCN2C(=O)c1ccc([N+](=O)[O-])cc1	87.3
O=S(=O)(c1ccc(Oc2ccccc2)cc1)N1CCC2(CC1)OCCN2S(=O)(=O)c1ccc(Oc2ccccc2)cc1 [Compound C0149M]	124.8
